Target: T1, Claudin 18.2 (CLDN18.2), expressed on CHOS-CLDN 18.2 / HEK293-CLDN 18.2 / HCC827-CLDN 18.2 cells (human, UniProt P56856-2 1-261)
T1 construct: whole, on cells; The species is not repeated for the CHOS-CLDN 18.2 cells; also called claudin-18A2
Assay: FACS, CHOS-CLDN18.2 cells, 5 µg/ml
measuredMetric: FACS reading
# output: bare number, no unit

Asked: Report measured FACS reading; entry is QP024025 (antibody, human IgG1, V domains shown, also called IMAB362; 175D10(IMAB362)) VH: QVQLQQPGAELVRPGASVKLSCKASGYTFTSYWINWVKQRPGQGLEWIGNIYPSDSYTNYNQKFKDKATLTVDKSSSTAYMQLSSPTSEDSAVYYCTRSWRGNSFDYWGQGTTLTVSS VL: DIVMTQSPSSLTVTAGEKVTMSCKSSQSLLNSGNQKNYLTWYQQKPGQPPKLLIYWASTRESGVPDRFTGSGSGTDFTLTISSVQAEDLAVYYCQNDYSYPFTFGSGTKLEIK
Given back: 105000
